# measured-target: CD4 (Homo sapiens)
# Construct: PBL were prepared by density gradient centrifugation; endogenous in cells; host or cells: human peripheral blood lymphocytes (PBL)
# experimental-details: Dose-response of inhibition of αCD4 binding in presence (RPMI 1640 with 5% serum) and absence (PBS) of serum
# test-settings: RPMI 1640 with 5% serum versus PBS; FIG. 1
measurement-kind: Fold more dye needed to inhibit αCD4 binding in the presence of serum

COc1cc(N=Nc2cc(S(=O)(=O)[O-])cc3cc(S(=O)(=O)[O-])cc(O)c23)c(C)cc1NC(=O)Nc1cc(C)c(N=Nc2cc(S(=O)(=O)[O-])cc3cc(S(=O)(=O)[O-])cc(O)c23)cc1OC.[Na+].[Na+].[Na+].[Na+] [Direct Red 79]; about 100 ×
O=S(=O)([O-])c1ccc2c(N=Nc3ccccc3)ccc(N=Nc3ccc(Nc4ccccc4)c4c(S(=O)(=O)[O-])cccc34)c2c1.[Na+].[Na+] [Acid Blue 116]; about 100 ×
Cc1ccccc1N=Nc1ccc(N=Nc2c(O)c(S(=O)(=O)[O-])cc3cc(S(=O)(=O)[O-])ccc23)c(C)c1.[Na+].[Na+] [Acid Red 115]; about 100 ×
